biological target: human mGluR2 receptor (Homo sapiens); construct: expressed in transfected cells; assay: [35S]-GTPγS binding assay of mGluR2 receptor activation; format: biochemical; conditions: membranes from CHO cells stably expressing human mGluR2; 1 μM glutamate
Sequence (Q14416 19-872): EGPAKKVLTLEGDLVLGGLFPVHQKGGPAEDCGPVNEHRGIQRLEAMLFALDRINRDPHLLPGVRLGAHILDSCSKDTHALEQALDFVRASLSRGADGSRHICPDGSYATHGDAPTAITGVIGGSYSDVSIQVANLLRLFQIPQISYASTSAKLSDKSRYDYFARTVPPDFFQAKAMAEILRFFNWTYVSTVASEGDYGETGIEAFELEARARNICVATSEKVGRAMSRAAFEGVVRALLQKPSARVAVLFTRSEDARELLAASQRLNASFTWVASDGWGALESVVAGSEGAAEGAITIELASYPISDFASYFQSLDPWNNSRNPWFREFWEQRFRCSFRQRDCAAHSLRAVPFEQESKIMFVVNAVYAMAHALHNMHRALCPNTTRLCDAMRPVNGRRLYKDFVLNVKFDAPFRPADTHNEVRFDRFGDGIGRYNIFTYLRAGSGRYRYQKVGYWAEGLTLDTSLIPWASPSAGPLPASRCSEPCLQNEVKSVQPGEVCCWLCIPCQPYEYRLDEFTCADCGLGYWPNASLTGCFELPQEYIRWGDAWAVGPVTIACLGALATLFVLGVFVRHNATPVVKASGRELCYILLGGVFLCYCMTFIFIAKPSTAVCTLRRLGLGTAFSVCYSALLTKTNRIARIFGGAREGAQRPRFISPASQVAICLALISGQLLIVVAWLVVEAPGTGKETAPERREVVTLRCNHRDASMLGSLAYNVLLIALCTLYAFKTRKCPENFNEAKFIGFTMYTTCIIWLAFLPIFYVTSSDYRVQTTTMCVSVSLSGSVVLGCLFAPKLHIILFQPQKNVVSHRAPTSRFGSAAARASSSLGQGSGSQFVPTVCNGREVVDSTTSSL
parameter measured: pEC50
Just the number, please; pEC50 means minus log10 of the concentration in mol/L.

# compound, pEC50
data = [
    ("Cc1cc(CNCc2ccccc2)cc2c1C(=O)N(Cc1ccc(OC(F)(F)F)cc1)C2 [Example 45]", 6.41),
    ("O=C1c2c(Cl)cc(N3CCOCC3)cc2CN1Cc1ccc(OC(F)(F)F)cc1 [Example 155]", 6.28),
    ("Cc1cc(CN2CCN(c3ccccn3)CC2)cc2c1C(=O)N(Cc1ccc(OC(F)(F)F)cc1)C2 [Example 43]", 7.30),
    ("Cc1cc(C(=O)N2CCN(Cc3ccccc3)CC2)cc2c1C(=O)N(Cc1ccc(OC(F)(F)F)cc1)C2 [Example 161]", 6.20),
    ("CN(C)[C@H]1CCN(c2cc(Cl)c3c(c2)CN(Cc2ccc(OC(F)(F)F)cc2)C3=O)C1 (stereo in doubt) [Example 144]", 6.51),
    ("Cc1cc(CNCCc2ccccc2)cc2c1C(=O)N(Cc1ccc(OC(F)(F)F)cc1)C2 [Example 46]", 6.20),
    ("O=Cc1cnccc1-c1cc(Cl)c2c(c1)CN(Cc1ccc(Cl)cc1)C2=O [Example 108]", 6.34),
    ("Cc1cc(CN(C)Cc2ccccc2)cc2c1C(=O)N(Cc1ccc(OC(F)(F)F)cc1)C2 [compound 35]", 7.15),
]

State the recorded pEC50 for this entry: COc1cc(C2=CCNCC2)cc2c1C(=O)N(Cc1ccc(OC(F)(F)F)cc1)C2 [Example 92]
5.87

Which value of pEC50 has been reported for Cc1cc(CNCCCc2ccccc2)cc2c1C(=O)N(Cc1ccc(OC(F)(F)F)cc1)C2 [Example 47] in the records?
6.47

Look up pEC50: Cc1cc(N2CCC(N(C)C)C2)cc2c1C(=O)N(Cc1ccc(OC(F)(F)F)cc1)C2 (stereo not drawn) [Example 115]
6.52

Endpoint output: pEC50 of O=C1c2ccc(N3CCOCC3)cc2CN1Cc1ccc(OC(F)(F)F)cc1 [Example 150] . Value?
5.06

----------
target: human mGluR2 receptor (Homo sapiens); construct: expressed in transfected cells; assay: [35S]-GTPγS binding assay of mGluR2 receptor activation; format: biochemical
In this section we review reported log10 of EC50 values for a set of compounds.
Scale type: logarithmic (base 10). Underlying EC50 unit: nM.

# cpd smiles, log10 of EC50
data = [
    ("CCCN1CCC(Cc2cc(C)c3c(c2)CN(Cc2ccc(OC(F)(F)F)cc2)C3=O)CC1", 3.18),
]

Please look up its log10 of EC50: Cc1cc(CC2CCN(Cc3cccnc3)CC2)cc2c1C(=O)N(Cc1ccc(OC(F)(F)F)cc1)C2
2.15

Please report the recorded log10 of EC50 for Cc1cc(-c2nnc(CN3CCOCC3)o2)cc2c1C(=O)N(Cc1ccc(OC(F)(F)F)cc1)C2 .
3.11

Which measured log10 of EC50 value corresponds to CCN(CC)Cc1noc(-c2cc(C)c3c(c2)CN(Cc2ccc(OC(F)(F)F)cc2)C3=O)n1 ?
2.15

Which log10 of EC50 is listed for Cc1cc(CN2CCN(c3ccccn3)CC2)cc2c1C(=O)N(Cc1ccc(OC(F)(F)F)cc1)C2 ?
2.15

Could you share which log10 of EC50 value was measured for Cc1cc(-c2nc(CN3CCOCC3)no2)cc2c1C(=O)N(Cc1ccc(OC(F)(F)F)cc1)C2 ?
2.04

Can you look up the measured log10 of EC50 of Cc1cc(CC2CCN(Cc3ccc(C#N)cc3)CC2)cc2c1C(=O)N(Cc1ccc(OC(F)(F)F)cc1)C2 for me?
1.60

Given Cc1cc(-c2nc(CN(C)C)no2)cc2c1C(=O)N(Cc1ccc(OC(F)(F)F)cc1)C2 , state its recorded log10 of EC50.
2.00
